Just for reference, patent US20240270821A1 is where these values come from.

# assay.details: in vivo
# Set-up: species or system cynomolgus monkeys
# run.parameters: both sexes, cynomolgus monkey, po, 300 mg
Starred links: 1 amine or outer side, 2 acyl side, 3 side chain; linkers in the order of their positions; H or OH if unused. Non-standard residues stand in square brackets, D forms with d. Groups on a side chain read outwards from the residue. *: point of attachment. C18 diacid = O=C(O)CCCCCCCCCCCCCCCCC(=O)*; αMePhe(2-F) = C[C@](N)(Cc1ccccc1F)C(=O)O; γGlu = O=C(O)[C@H](CCC(=O)[*:2])N[*:1]; αMe4Pal = C[C@](N)(Cc1ccncc1)C(=O)O; αMeY = C[C@](N)(Cc1ccc(O)cc1)C(=O)O; 4Pal = N[C@@H](Cc1ccncc1)C(=O)O; αMeL = CC(C)C[C@](C)(N)C(=O)O; αMeS = C[C@](N)(CO)C(=O)O; Orn = NCCC[C@H](N)C(=O)O; AEEA = NCCOCCOCC(=O)O; Aib = CC(C)(N)C(=O)O
Listing of entries alongside the reported half-life.
Give just the number in h; leave the unit off.

# example entries with known answers
H-Y[Aib]QGT[αMePhe(2-F)]TSD[4Pal][αMeS]I[αMeL]LD[Orn]K([AEEA-γGlu-C18 diacid])AQ[αMe4Pal]EFI[dE][αMeY]LVEGGPSSGAPPPSGS-NH2 [Example 694]
50.7
H-Y[Aib]QGT[αMePhe(2-F)]TSD[4Pal][αMeS]I[αMeL]LD[Orn]K([AEEA-γGlu-C18 diacid])AQ[αMe4Pal]EFI[dE][αMeY]LIEGGPSSGAPPPSGSE-NH2 [Example 712]
51.8
H-Y[Aib]QGT[αMePhe(2-F)]TSD[4Pal][αMeS]ILLD[Orn]K([γGlu-γGlu-C18 diacid])AQ[Aib][Orn]FI[dE]YLIEGGPSSGEPPPSGTGE-NH2 [Example 548]
45

What half-life value was documented for this substance, H-Y[Aib]QGT[αMePhe(2-F)]TSD[4Pal][αMeS]I[αMeL]LD[Orn]K([AEEA-γGlu-C18 diacid])AQ[αMe4Pal]EFI[dE][αMeY]LIEGGPSSGAPPPSGGGE-NH2 [Example 741] ?
58.1

What would you report for H-Y[Aib]QGT[αMePhe(2-F)]TSD[4Pal]SILLDKK([γGlu-γGlu-C18 diacid])AQ[Aib]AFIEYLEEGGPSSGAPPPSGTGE-NH2 [Example 510] ?
47

Then what about the substance H-Y[Aib]QGT[αMePhe(2-F)]TSD[4Pal]SI[αMeL]LD[Orn]K([γGlu-γGlu-C18 diacid])AQ[αMe4Pal][Orn]FI[dE][αMeY]LIEGGPSSGEPPPETE-NH2 [Example 686] ?
44.6

Also H-Y[Aib]QGTFTSD[4Pal]SQ[αMeL]LDKK([γGlu-γGlu-C18 diacid])AQ[αMe4Pal]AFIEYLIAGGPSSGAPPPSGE-NH2 [Example 883] ?
29

And then H-Y[Aib]QGTFTSD[4Pal]SQ[αMeL]LD[Orn]K([γGlu-γGlu-C18 diacid])AQ[αMe4Pal]AFIE[αMeY]LIEGGPSSGEPPPSGSEE-NH2 [Example 1027] , what is it?
55.7
